Reported values of GI50 for individual entries
System: CCRF-CEM
testSummary: Antiproliferative activity against human CEM cells assessed as growth inhibition measured after 72 hrs by calcein AM dye-based fluorescence assay
Format: functional

{"columns": ["itemSmiles", "measurementTarget", "unit", "GI50"],
 "data": [
  ["O=C(N[C@@H](Cc1ccccc1)C(=O)Nc1ccc(C(F)(F)F)cc1)c1cc(Cl)ccc1OCc1ccccc1", "CCRF-CEM", "µM", 31.5],
  ["CC(C)C[C@H](NC(=O)c1cc(Cl)ccc1OCc1ccccc1)C(=O)N[C@@H](CC(C)C)C(=O)NC1CCCCC1", "CCRF-CEM", "µM", 9.8],
  ["CC(C)C[C@H](NC(=O)c1cc(Cl)ccc1OCc1ccccc1)C(=O)N[C@@H](Cc1ccccc1)C(=O)Nc1ccc(Cl)c(Cl)c1", "CCRF-CEM", "µM", 45.4],
  ["CC(C)C[C@H](NC(=O)c1cc(Cl)ccc1OCc1ccccc1)C(=O)Nc1ccc(C(F)(F)F)cc1", "CCRF-CEM", "µM", 35.4],
  ["CC(C)C[C@H](NC(=O)c1cc(Cl)ccc1O)C(=O)Nc1ccc(C(F)(F)F)cc1", "CCRF-CEM", "µM", 5]
]}

---

Test system: K562
testSummary: Antiproliferative activity against human K562 cells assessed as growth inhibition measured after 72 hrs by calcein AM dye-based fluorescence assay
Format: functional

{"columns": ["itemSmiles", "measurementTarget", "GI50"],
 "data": [
  ["CC(C)C[C@H](NC(=O)c1cc(Cl)ccc1OCc1ccccc1)C(=O)Nc1ccc(C(F)(F)F)cc1", "K562", "> 50 µM"],
  ["O=C(N[C@@H](Cc1ccccc1)C(=O)Nc1ccc(C(F)(F)F)cc1)c1cc(Cl)ccc1OCc1ccccc1", "K562", "> 50 µM"],
  ["CC(C)C[C@H](NC(=O)c1cc(Cl)ccc1OCc1ccccc1)C(=O)N[C@@H](CC(C)C)C(=O)Nc1ccc(Cl)c(Cl)c1", "K562", "> 100 µM"]
]}

FYI, the data here is from ChEMBL document CHEMBL4680159.
